tested on: SK-OV-3 ovarian; test: NCI tumour cell line growth inhibition, 48 h
ASSAY READOUT: TGI

Consider the following illustrative entries.
CC1(C)OCC([C@H]2CC23SCCCS3)O1 (some centres not stated) :: > 100 µM
COc1cc(N2CCN(C(C)C)CC2)ccc1Nc1nc(Nc2cccc(F)c2C(=O)O)c2cc[nH]c2n1 :: > 25 µM
Cc1c(N/C=C(\C#N)C(=O)c2ccc(Cl)cc2)c(=O)n(-c2ccccc2)n1C :: > 100 µM

Entry O=S1(=O)CS(=O)(=O)OCCO1 has what TGI?
70.5 µM

# lookup: TGI of CC(C)(C)OC(=O)C1=C2C=C(O)C=CC2(C)N(Cc2ccccc2)C1=N (configuration not stated)
42.1 µM

Quick one: TGI of NC(=O)C(=O)C(c1ccccc1)S(=O)(=O)Cc1ccccc1 (configuration not stated) ?
> 100 µM

Please give the measured TGI for this molecule: O=c1[nH]nc(Cn2c3ccc(Br)cc3c3nc4ccccc4nc32)n1C1CCCCC1
> 100 µM

Entry O=C(O)CN1CCN(CC(=O)N2CCN(C(=O)OCc3ccccc3)CC2)CCN(CC(=O)O)CCN(CC(=O)N2CCN(C(=O)OCc3ccccc3)CC2)CC1 has what TGI?
> 100 µM

Recorded TGI of Cc1nn2c(C(=O)N/N=C/c3ccc([N+](=O)[O-])cc3)c(C)nc2s1 , please.
87 µM

# query: TGI of entry CC(C)CC(Nc1c(O)ccc2ccccc12)C(=O)O (configuration not stated)
66.3 µM

# input molecule: CC1Cc2cc(O)c(O)cc2-c2cc(O)c(O)cc2CC1C (configuration not stated) ; wanted: its TGI
> 100 µM

Need TGI, item O=c1c2cc(Cl)ccc2[nH]c2cc(O)cc(O)c12
> 10 µM

So what's the measured TGI for this one? O=C1c2ccccc2CC12Cc1ccccc1C2
> 100 µM

What measured TGI goes with O=[N+]([O-])c1cc(Cl)ccc1OCc1ccccc1 ?
> 100 µM

Reported TGI, molecule Oc1cccc(/C=N/Nc2nnc(N/N=C/c3cccc(O)c3)c3ccccc23)c1 : ____
> 100 µM

Which TGI is listed for O=C1N[C@@H]2c3c(Br)sc(Br)c3C(=O)[C@@H]2O1 ?
32.7 µM

# input molecule: Cc1cc(C(=O)NC(CCC(=O)O)C(=O)O)sc1CCC1CNc2nc(N)[nH]c(=O)c2C1 (configuration not stated) ; wanted: its TGI
> 100 µM

Given the entry O=C1NC(=O)/C(=C/c2ccc(S(=O)(=O)N/N=C\C(O)C(O)C(O)C(O)CO)cc2)N1 (configuration not stated) , report its measured TGI.
> 100 µM

Given the molecule CN1C=Cc2nccc3cc4c(c1c23)OCO4 , what is its reported TGI?
61.6 µM

# input molecule: COc1ccc2c(c1)[n+]([O-])c(-c1ccc(C)cc1)c(N)[n+]2[O-] ; wanted: its TGI
> 100 µM

Reported TGI, molecule Nc1c(N2CCOCC2)c(=O)nc2[nH]/c(=C\c3ccccc3)c(=O)n12 : ____
> 100 µM

What does the data say about its TGI? Entry: COC(=O)C(CBr)CBr
33.8 µM
